targetUnderTest: A2B adenosine receptor (A2BAR) (Homo sapiens)
Construct: gene ADORA2B
Sequence (P29275 whole entry): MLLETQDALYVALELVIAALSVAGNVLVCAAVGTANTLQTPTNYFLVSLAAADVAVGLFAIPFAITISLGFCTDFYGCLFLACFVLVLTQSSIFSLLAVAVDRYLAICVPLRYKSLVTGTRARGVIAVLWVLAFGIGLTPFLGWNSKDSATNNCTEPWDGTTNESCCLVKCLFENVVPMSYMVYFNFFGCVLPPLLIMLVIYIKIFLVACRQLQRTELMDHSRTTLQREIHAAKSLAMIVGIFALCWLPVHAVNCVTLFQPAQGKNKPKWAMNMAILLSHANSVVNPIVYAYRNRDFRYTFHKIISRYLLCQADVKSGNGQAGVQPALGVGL
assayComment: agonist-induced cAMP production (AlphaLISA) in A549 cells with endogenous receptor; effect reversed by MRS […]
Type: cell-based
measuredQuantity: EC50 (nM)
The answer is to be given in nM; state only the numeric part.

Write down the reported EC50 of `N#Cc1c(N)nc(SCC(N)=O)c(C#N)c1-c1ccc(OCC2CC2)cc1` , test system: A2B adenosine receptor (A2BAR) (Homo sapiens). 17.2
